Data provenance: patent US9056840B2

Maximum fluorescence wavelength λmax (nm) by entry:
Target: apoaequorin (Aequorea victoria, UniProt P07164)
Construct: purchased Chisso Corporation
Sequence (P07164 other isoform, or with tags, fused parts or gaps with the stated changes): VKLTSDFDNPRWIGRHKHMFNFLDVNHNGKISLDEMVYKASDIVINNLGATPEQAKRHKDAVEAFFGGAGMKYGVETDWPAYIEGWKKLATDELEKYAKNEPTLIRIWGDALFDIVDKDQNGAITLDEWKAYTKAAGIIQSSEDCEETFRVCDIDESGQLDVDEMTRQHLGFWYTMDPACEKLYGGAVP
Test: Fluorescence spectra of fluorescent proteins formed from semi-synthetic aequorins by Ca2+
Assay type: physicochemical
Settings: fluorescent protein generated by calcium from semi-synthetic aequorin; excitation 330 nm, 25° C.
Lab book: enter the figure in nm, no units written.

Field: example entries. Status: answers known.
> print(dat)
                                   compound  measured.number
1  O=c1c(Cc2ccc(O)cc2)nc2c(-c3ccccc3)[nH]c(-c3ccc(O)cc3)cn1-2 [Compound 3a]            501.5
2  O=c1c(Cc2ccc(O)cc2)nc2c(-c3cc4ccccc4s3)[nH]c(-c3ccc(O)cc3)cn1-2 [Compound 3h]            537.0
3  O=c1c(Cc2ccc(O)cc2)nc2c(/C=C/c3ccccc3)[nH]c(-c3ccc(O)cc3)cn1-2 [Compound 3b]            580.0

Next item in the queue.
Item: O=c1c(Cc2ccc(O)cc2)nc2c(-c3ccc(O)cc3)[nH]c(-c3ccc(O)cc3)cn1-2 [Compound 3j] | Maximum fluorescence wavelength λmax (nm): 580.0

----------
Biological target: apoaequorin (Aequorea victoria, UniProt P07164)
Construct: purchased Chisso Corporation
Assay: Luminescence spectra of semi-synthetic aequorins
Format: biochemical
Conditions: semi-synthetic aequorin, calcium added, 22 to 25° C.
Documented Maximum luminescence wavelength λmax (nm) across a set of compounds
Numbers only here, please. The scale is nm.

// known answers, use as guide
> print(dat)
                           structure.smiles  measured.number
1  O=c1c(Cc2ccc(O)cc2)nc2c(-c3ccc(O)cc3)[nH]c(-c3ccc(O)cc3)cn1-2            457.5
2  O=c1c(Cc2ccc(O)cc2)nc2c(-c3ccc4ccccc4c3)[nH]c(-c3ccc(O)cc3)cn1-2            507.0
3  O=c1c(Cc2ccc(O)cc2)nc2c(/C=C/c3ccccc3)[nH]c(-c3ccc(O)cc3)cn1-2            447.0
4  Oc1ccc(Cc2nc3c(Cc4ccccc4)nc(-c4ccc(O)cc4)cn3c2O)cc1            472.5
5  O=c1c(Cc2ccc(O)cc2)nc2c(-c3cc4ccccc4s3)[nH]c(-c3ccc(O)cc3)cn1-2            532.5
6  O=c1c(Cc2ccc(O)cc2)nc2c(-c3cccc4ccccc34)[nH]c(-c3ccc(O)cc3)cn1-2            480.0
7  O=c1c(Cc2ccc(O)cc2)nc2c(-c3ccccc3)[nH]c(-c3ccc(O)cc3)cn1-2            494.0

Now examine the next entry.
Value of Maximum luminescence wavelength λmax (nm) reported for the compound `O=c1c(Cc2ccc(O)cc2)nc2c(-c3cccs3)[nH]c(-c3ccc(O)cc3)cn1-2` is 515.0

----------
Molecular target: 19 kDa protein from Oplophorus luciferase (Oplophorus gracilirostris)
Construct: made in house
Sequence (Q9GV45 28-196): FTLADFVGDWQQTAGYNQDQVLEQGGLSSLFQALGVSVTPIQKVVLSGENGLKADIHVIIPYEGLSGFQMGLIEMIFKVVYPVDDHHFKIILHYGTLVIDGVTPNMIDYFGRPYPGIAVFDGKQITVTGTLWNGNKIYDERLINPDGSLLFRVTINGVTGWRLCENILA
Test: Substrate specificity and luminescence activity of the 19 kDa protein from Oplophorus luciferase
Assay type: biochemical
Conditions: measured for 60 seconds, coelenterazine = 100
result type: Luminescence activity Imax (%)
Respond with the bare value in %.

Example compounds with recorded Luminescence activity Imax (%):
> print(dat)
                           structure.smiles  result.units  measured.number
1  O=c1c(Cc2ccc(O)cc2)nc2c(-c3ccc4ccccc4c3)[nH]c(-c3ccc(O)cc3)cn1-2             %             0.07
2  O=c1c(Cc2ccc(O)cc2)nc2c(-c3ccsc3)[nH]c(-c3ccc(O)cc3)cn1-2             %              0.3
3  O=c1c(Cc2ccc(O)cc2)nc2c(/C=C/c3ccccc3)[nH]c(-c3ccc(O)cc3)cn1-2             %             0.07

Now turn to the next compound.
Looking up `O=c1c(Cc2ccc(O)cc2)nc2c(-c3ccc(O)cc3)[nH]c(-c3ccc(O)cc3)cn1-2` , I found its Luminescence activity Imax (%) recorded as 0.2
